system: OVCAR-4; test: NCI tumour cell line growth inhibition, 48 h
Calls of active or inactive are those of the source. Rule as the data show it: active = GI50 up to about 1.1 µM and inactive = higher.
# GI50 listing for each entry below
quantityKind: GI50

{"molecule": "O=C/C=C/c1ccco1", "reported": "> 100 µM (inactive)"}
{"molecule": "COC(=O)CCC(=O)c1ccc2c(c1)CC1(C2)Cc2ccc3c(c2C1)CCCC3=O (centres undefined)", "reported": "24.1 µM (inactive)"}
{"molecule": "CC(=O)N1N=C(c2ccccc2Nc2ccccc2C2=NN(C(C)=O)C(c3ccccc3)O2)OC1c1ccccc1 (centres undefined)", "reported": "29.8 µM (inactive)"}
{"molecule": "N#CCCC1C(C#N)C2(Cl)CC1(Cl)C(Cl)=C2Cl (centres undefined)", "reported": "> 10 µM (inactive)"}
{"molecule": "CC(C)(C)OC(=O)N1Cc2cc(O)ccc2C[C@H]1C(=O)O", "reported": "> 100 µM (inactive)"}
{"molecule": "CCOC(=O)n1c2ccccc2c(=O)n1CCO", "reported": "> 100 µM (inactive)"}
{"molecule": "CCCCc1ccc(Nc2nc3c(ncn3COCCBr)c(=O)[nH]2)cc1", "reported": "> 100 µM (inactive)"}
{"molecule": "O=C(O)CC/C(=N\\Nc1nsc2ccccc12)c1ccc(Cl)cc1", "reported": "20.8 µM (inactive)"}
{"molecule": "CC(=O)Nc1nc(C)c(S(=O)(=O)NC(=O)N2c3ccccc3CCc3ccccc32)s1", "reported": "> 100 µM (inactive)"}
{"molecule": "Nc1nc(N)c(-c2ccccc2)c(C(=O)Nc2nccs2)n1", "reported": "> 100 µM (inactive)"}
{"molecule": "NC(=O)C(=O)C1C(=O)N(c2ccccc2)N=C1N (centres undefined)", "reported": "> 100 µM (inactive)"}
{"molecule": "CCOC(=O)c1csc(NC(=O)CN(C)C)n1", "reported": "> 100 µM (inactive)"}
{"molecule": "C[C@]12CCC3[C@@H](CC[C@@H]4c5nonc5CC[C@]34C)C1CCC(=O)N2 (some centres undefined)", "reported": "> 100 µM (inactive)"}
{"molecule": "COc1ccc(C(=O)OC2C=COC(C)C2OC(=O)c2ccc(OC)cc2)cc1 (centres undefined)", "reported": "24.9 µM (inactive)"}
{"molecule": "O=C(c1cccnc1)N1N=C(c2ccc3c(c2)OCO3)CC1(O)c1cc(F)c(Cl)cc1Cl (centres undefined)", "reported": "22.4 µM (inactive)"}
{"molecule": "CCOC(=O)Nc1cc(NC(/C=N/NC(C)=O)C(=O)OCC)c(OC)cc1NC(C)=O (centres undefined)", "reported": "> 100 µM (inactive)"}
{"molecule": "Cc1ccc(C(=O)Nc2ccccc2)cc1/N=N/N(C)C", "reported": "> 100 µM (inactive)"}
{"molecule": "COc1c(C(=O)O)oc2c(OC)cccc12", "reported": "> 100 µM (inactive)"}
{"molecule": "CC(C)(C)c1cc(O)c2c(c1O)C(=O)CCC2", "reported": "30.2 µM (inactive)"}

---

system: RXF 393; assay: NCI tumour cell line growth inhibition, 48 h
Active and inactive are the calls of the source. Cut-off read from the data, not from the text of the source: active = GI50 up to about 1.1 µM and inactive = higher.
Labels: class 1 for active, class 0 for inactive

{"molecule": "COc1c(C=O)c2c(c(OC)c1OC)-c1ccc(OC)c(=O)cc1[C@@H](NC(C)=O)CC2", "tgt": "RXF 393", "category": "class 1"}
{"molecule": "C=C(C)C1CC2=C(O1)C(=O)c1ccccc1C2=O (stereo not drawn) [DEHYDROISO-ALPHA-LAPACHONE]", "tgt": "RXF 393", "category": "class 0"}
{"molecule": "O=c1nc2sc3ccc4ccccc4c3n2nc1-c1ccccc1", "tgt": "RXF 393", "category": "class 0"}
{"molecule": "CN(C)c1ccc(/C=N\\NC(=O)c2ccccc2Nc2ccccc2C(=O)N/N=C/c2ccc(N(C)C)cc2)cc1", "tgt": "RXF 393", "category": "class 0"}
{"molecule": "CCOc1ccc(C(C)c2cc3c(cc2OC)OCO3)cc1 (stereo unspecified)", "tgt": "RXF 393", "category": "class 1"}
{"molecule": "Cc1cc(S(=O)(=O)n2ccnc2O)c(SCCCN(C)C)cc1Cl", "tgt": "RXF 393", "category": "class 0"}

---

system: LXFL 529; assay: NCI tumour cell line growth inhibition, 48 h
The source made the active and inactive calls. Cut-off read from the data, not from the text of the source: active = GI50 up to about 1.1 µM and inactive = higher.
Outcome codes: active, inactive

{"compound": "O=c1c2ccccc2[nH]c2cc(O)cc(O)c12", "category": "inactive"}
{"compound": "c1ccc2c(NCCCCCCNc3c4ccccc4nc4ccccc34)c3ccccc3nc2c1", "category": "active"}
{"compound": "CC1C(=O)C(C)C(c2ccccc2)N(N=O)C1c1ccccc1 (stereo unspecified)", "category": "inactive"}
{"compound": "CC(C)(C)NCC(COc1ccc([N+](=O)[O-])cc1)OP(c1ccccc1)c1ccccc1 (stereo unspecified)", "category": "inactive"}
{"compound": "CC1(C)OC(=O)C(=C2CC(c3ccccc3)c3ccccc32)C(=O)O1 (stereo unspecified)", "category": "inactive"}
{"compound": "C=C(C)C1CC2=C(O1)C(=O)c1ccccc1C2=O (stereo not drawn) [DEHYDROISO-ALPHA-LAPACHONE]", "category": "inactive"}
{"compound": "CC1=CCC[C@@]2(C)C(CC[C@@H]2C(C)/C=C/C(C)C)c2ccc(cc2C(=O)O)C[C@@H](O)CC1 (stereo partly specified)", "category": "inactive"}
{"compound": "Nc1nc(N)c(-c2ccccc2)c(C(=O)Nc2nccs2)n1", "category": "inactive"}
{"compound": "C[C@@H]1CC(=O)C2CCCC1C2=O (stereo partly specified)", "category": "inactive"}
{"compound": "CC(=O)NNc1nc(C)c(C(/C=C/c2ccc(Cl)cc2)=N/NC(=O)C[N+](C)(C)C)s1", "category": "inactive"}
{"compound": "COC(=O)c1ccccc1N1C(=O)Cc2ccccc2C1=O", "category": "inactive"}

---

system: OVCAR-3; experiment: NCI tumour cell line growth inhibition, 48 h
Calls of active or inactive are those of the source. Rule as the data show it: active = GI50 up to about 1.1 µM and inactive = higher.
Catalogue of GI50 readings, one per entry.
quantityKind: GI50

{"molecule": "C[N+](C)(C)CC1CCC(C[N+](C)(C)C)C1=O (stereo not drawn)", "tgt": "OVCAR-3", "quantityKind": "GI50", "reported": "2.39 µM (inactive)"}
{"molecule": "COc1cc(C2OC(N)=C(C#N)C3=C2C(C)CCC3)cc(OC)c1OC (stereo not drawn)", "tgt": "OVCAR-3", "quantityKind": "GI50", "reported": "> 100 µM (inactive)"}
{"molecule": "C=C(C)C(=O)O[C@H]1CC2(CO)O[C@@H]2CC/C(COC(C)=O)=C/C2OC(=O)C(=C)[C@@H]21 (stereo partly drawn)", "tgt": "OVCAR-3", "quantityKind": "GI50", "reported": "30.2 µM (inactive)"}

---

system: HL-60; experiment: NCI tumour cell line growth inhibition, 48 h
Calls of active or inactive are those of the source. Rule as the data show it: active = GI50 up to about 1.1 µM and inactive = higher.
Outcomes: 1 for active, 0 for inactive

{"compound": "CC1=CCC[C@@]2(C)C(CC[C@@H]2C(C)/C=C/C(C)C)c2ccc(cc2C(=O)O)C[C@@H](O)CC1 (stereo partly drawn)", "tgt": "HL-60", "category": 0}
{"compound": "COc1ccc2c(c1)c1nn(CCN(C)C)c3ccc4c(=O)n(CCN(C)C)c(=O)n2c4c13", "tgt": "HL-60", "category": 1}
{"compound": "CCOC(=O)/C=C1\\CCCC12OCCO2", "tgt": "HL-60", "category": 0}
{"compound": "Oc1ccc2c(c1)-c1c(c3cc(O)ccc3n1CCN1CCOCC1)CC2", "tgt": "HL-60", "category": 0}
{"compound": "Cc1ccc(/N=N/NCCCCN/N=N/c2ccc(C)cc2)cc1", "tgt": "HL-60", "category": 0}
{"compound": "COC(=O)NC(Cc1ccccc1)NC(C)=O (stereo not drawn)", "tgt": "HL-60", "category": 0}
{"compound": "NC(CS)C(=O)NCCNc1ccc(NCCNC(=O)C(N)CS)c2c1C(=O)c1c(O)ccc(O)c1C2=O (stereo not drawn)", "tgt": "HL-60", "category": 1}
{"compound": "CC(C)N1CC2CC(CN(C(=O)c3ccccc3)C2)C1.[O-][Cl+3]([O-])([O-])O", "tgt": "HL-60", "category": 0}

---

system: TK-10; experiment: NCI tumour cell line growth inhibition, 48 h
Active and inactive are the calls of the source. No stated cut-off is given here; in the data, active = GI50 up to about 1.1 µM and inactive = higher.
Below, each entry is listed with its recorded GI50.

{"compound": "CCN(CC)/C(SCc1ccccc1)=C(\\C(Cl)=C(Cl)Cl)[N+](=O)[O-]", "GI50": "19.2 µM (inactive)"}
{"compound": "C[C@@H]1CC(=O)C2CCCC1C2=O (stereo partly drawn)", "GI50": "> 100 µM (inactive)"}
{"compound": "COC(=O)C1=C(C(=O)OC)C2=S(SC3=C2CCCC3)S1 (stereo not drawn)", "GI50": "30.1 µM (inactive)"}

Just for reference, ChEMBL document CHEMBL1201862 is where these values come from.
